target: mitochondrial ETC complex I (NADH-ubiquinone oxidoreductase) (Homo sapiens, UniProt O75251+O75306+P03886); test: Oxygen consumption
endpoint_label: IC50 (µM)
Give just the number in µM; leave the unit off.

Exercise: So what's the measured IC50 for this one? CC(C)(O)[C@H]1CC[C@](C)([C@@H](O)CC[C@](C)(O)[C@H]2CC[C@H]3O[C@@H]([C@]4(C)CC[C@@H](Br)C(C)(C)O4)CC[C@]3(C)O2)O1 [compound 1, thyrsiferol]
Key: 3
